target: MCH receptor (Homo sapiens, UniProt Q99705); assay: High throughput functional screening FLIPR/FDSS6000: inhibition of MCH-evoked intracellular Ca2+ changes; type: cell-based; settings: class by percent of control at 10^-7 M or by IC50; read-out: class
assayMetric: IC50

{"columns": ["chemicalString", "observedResult"],
 "data": [
  ["CN(C)c1nc(N[C@H]2CC[C@@H](NC(=O)Nc3ccc(F)cc3[N+](=O)[O-])CC2)nc2ccccc12", "50 to 200 nM"],
  ["CN(C)c1nc(N[C@H]2CC[C@@H](NC(=O)Nc3ccc(Br)cc3C(F)(F)F)CC2)nc2ccccc12", "< 50 nM"],
  ["CN(C)c1nc(N[C@H]2CC[C@@H](CNC(=O)OCCOCc3ccccc3)CC2)nc2ccccc12", "> 200 nM"],
  ["CN(C)c1nc(N[C@H]2CC[C@@H](NC(=O)Nc3ccc(Cl)cc3Cl)CC2)nc2ccccc12", "50 to 200 nM"],
  ["CN(C)c1nc(N[C@H]2CC[C@@H](NC(=O)OCc3ccc([N+](=O)[O-])cc3)CC2)nc2ccccc12", "< 50 nM"],
  ["CN(C)c1nc(N[C@H]2CC[C@@H](NC(=O)Nc3ccc(F)c(Cl)c3)CC2)nc2ccccc12", "50 to 200 nM"],
  ["COc1ccc(NC(=S)N[C@H]2CC[C@@H](Nc3nc(N(C)C)c4ccccc4n3)CC2)c(OC)c1", "< 50 nM"]
]}
